This collection of values is drawn from patent US20030114402A1.

# Experimental target: DNA cytosine-5 methyltransferase (DCMTase, Dnmt1) (Mus musculus, UniProt P13864 P13864:1-1620)
# Sequence (P13864 whole entry, one chain of several): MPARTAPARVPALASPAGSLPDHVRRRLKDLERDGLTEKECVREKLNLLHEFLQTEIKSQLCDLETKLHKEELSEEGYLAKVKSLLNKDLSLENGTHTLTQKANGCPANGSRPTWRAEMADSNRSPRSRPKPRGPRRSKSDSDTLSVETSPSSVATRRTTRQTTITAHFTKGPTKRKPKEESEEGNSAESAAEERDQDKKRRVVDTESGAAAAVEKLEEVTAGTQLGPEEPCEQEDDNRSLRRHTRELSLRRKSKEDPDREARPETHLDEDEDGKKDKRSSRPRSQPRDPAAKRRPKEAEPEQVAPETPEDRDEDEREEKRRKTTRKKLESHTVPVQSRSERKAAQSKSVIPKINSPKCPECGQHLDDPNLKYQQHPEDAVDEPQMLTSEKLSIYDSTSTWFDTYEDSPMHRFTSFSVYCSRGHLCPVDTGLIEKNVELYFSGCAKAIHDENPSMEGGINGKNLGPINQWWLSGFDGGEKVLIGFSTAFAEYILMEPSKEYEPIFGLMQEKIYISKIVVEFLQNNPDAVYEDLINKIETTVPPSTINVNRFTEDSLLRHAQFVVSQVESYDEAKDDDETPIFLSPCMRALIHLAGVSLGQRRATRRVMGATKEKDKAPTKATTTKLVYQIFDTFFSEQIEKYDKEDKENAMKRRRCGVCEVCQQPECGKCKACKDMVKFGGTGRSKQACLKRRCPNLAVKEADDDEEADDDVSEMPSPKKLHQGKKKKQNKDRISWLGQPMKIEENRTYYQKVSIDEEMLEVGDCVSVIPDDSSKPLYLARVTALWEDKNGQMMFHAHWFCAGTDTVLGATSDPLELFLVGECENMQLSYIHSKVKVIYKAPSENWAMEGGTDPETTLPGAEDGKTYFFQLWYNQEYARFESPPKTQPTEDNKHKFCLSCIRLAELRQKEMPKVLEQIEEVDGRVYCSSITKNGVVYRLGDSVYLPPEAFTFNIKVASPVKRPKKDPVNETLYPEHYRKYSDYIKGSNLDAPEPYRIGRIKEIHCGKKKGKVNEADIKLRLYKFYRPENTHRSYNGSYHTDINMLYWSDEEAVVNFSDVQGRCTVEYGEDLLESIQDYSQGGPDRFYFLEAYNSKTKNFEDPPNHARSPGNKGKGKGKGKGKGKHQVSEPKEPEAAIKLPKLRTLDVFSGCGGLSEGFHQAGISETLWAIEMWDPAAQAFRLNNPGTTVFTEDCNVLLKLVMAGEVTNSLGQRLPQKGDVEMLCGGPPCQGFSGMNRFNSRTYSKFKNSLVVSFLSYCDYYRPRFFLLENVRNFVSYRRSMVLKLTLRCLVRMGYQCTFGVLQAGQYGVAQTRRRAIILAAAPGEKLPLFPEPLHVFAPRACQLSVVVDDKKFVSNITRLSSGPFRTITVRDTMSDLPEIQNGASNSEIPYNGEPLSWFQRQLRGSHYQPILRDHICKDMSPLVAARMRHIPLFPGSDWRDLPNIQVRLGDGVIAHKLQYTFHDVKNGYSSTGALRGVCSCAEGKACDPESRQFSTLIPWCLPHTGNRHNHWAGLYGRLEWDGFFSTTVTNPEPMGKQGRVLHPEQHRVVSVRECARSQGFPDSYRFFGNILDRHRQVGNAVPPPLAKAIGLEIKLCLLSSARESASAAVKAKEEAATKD
# Run description: inhibition; substrate inhibition; KmDNA 0.31 +/- 0.13 µM
# Condition summary: tags: none; purified from mouse erythroleukemia (MEL) cells; label: 32P (gel shift)
Quantity name: pKi
Worth noting: pKi values are minus log10 of concentrations stated in mol/L.

Item: GC-box a/b (dsDNA) DNA 1: GGGAATTCAAGGGGCGGGGCAAGGATCCAG DNA 2: CTGGATCCTTGCCCCGCCCCTTGAATTCCC | pKi: 4.37
